Reference source for all entries: patent US9776972B2

# pIC50 annotations
Target: Human CARM1 (PRMT4) (Homo sapiens)
Construct: Flag-CARM1-His; made in house; host or cells: HEK 293F cells (BacMam baculovirus)
Sequence (Q86X55 1-585 isoform Q86X55-1): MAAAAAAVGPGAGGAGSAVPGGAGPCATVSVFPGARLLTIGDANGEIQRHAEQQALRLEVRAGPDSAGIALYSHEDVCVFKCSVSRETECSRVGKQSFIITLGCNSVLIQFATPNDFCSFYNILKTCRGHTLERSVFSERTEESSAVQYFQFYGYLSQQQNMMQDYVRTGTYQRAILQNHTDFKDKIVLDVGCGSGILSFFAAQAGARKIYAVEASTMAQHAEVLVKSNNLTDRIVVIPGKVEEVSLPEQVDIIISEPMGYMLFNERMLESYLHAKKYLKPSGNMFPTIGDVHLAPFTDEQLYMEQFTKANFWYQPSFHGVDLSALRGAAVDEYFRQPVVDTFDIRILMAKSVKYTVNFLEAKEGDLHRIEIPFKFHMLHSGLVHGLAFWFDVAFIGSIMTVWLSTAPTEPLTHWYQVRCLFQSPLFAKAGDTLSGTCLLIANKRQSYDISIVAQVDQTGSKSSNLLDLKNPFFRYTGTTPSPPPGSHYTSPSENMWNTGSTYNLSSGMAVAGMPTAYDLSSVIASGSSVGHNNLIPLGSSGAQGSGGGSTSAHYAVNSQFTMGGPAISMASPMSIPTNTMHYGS
Assay: CARM1 Biochemical Assay (3H-SAM Flashplate, peptide substrate)
Conditions: single experiment or average of multiple experiments
pIC50: −log10 of the molar value.

SMI	pIC50
CNCCN(C)Cc1c[nH]nc1-c1ccc(O)cc1	5.77
CN(CCN)Cc1cnn(C2COC2)c1-c1ccc(F)cc1	5.79
CNCCN(C)Cc1c[nH]nc1-c1ccc(Oc2ccccc2)cc1	7.82
Cc1ccc(-c2n[nH]cc2CN(C)CCN)cc1Cl	6.99
CNCCN(C)Cc1c[nH]nc1-c1ccc2ccccc2c1	6.24
CNCCN(C)Cc1cn[nH]c1-c1ccc(C#N)cc1	5.81
CN(CCN)Cc1c[nH]nc1-c1cccc(Cl)c1	6.39
CCN(CC)C(=O)c1ccc(-c2n[nH]cc2CN(C)CCN)cc1	5.23
CN(CCN)Cc1c[nH]nc1-c1cc(F)cc(Cl)c1	6.67
Cc1c(F)cccc1-c1n[nH]cc1CN(C)CCN	5.62
CNCCN(C)Cc1c[nH]nc1-c1ccc(OC)cc1	5.81
CN(CCN)Cc1n[nH]cc1-c1ccc(C2CCOCC2)cc1	5.31
